Assignment: determine reported activity coefficient for the given compounds.
test: activity coefficient (dimensionless); of the first substance listed, at infinite dilution; xn = mol fraction of the nth substance listed; details: 308.15 K; 100 kPa; Liquid; Chromatography; x1 = 0

// worked examples, activity coefficient included
[[record]]
compound = "CCOC(C)(C)C [2-ethoxy-2-methylpropane] + CCCC[n+]1ccc(C#N)cc1.O=S(=O)([N-]S(=O)(=O)C(F)(F)F)C(F)(F)F"
measured_quantity = "activity coefficient"
measurement = 8.97

[[record]]
compound = "CC(C)(C)O [2-methylpropan-2-ol] + CCCC[n+]1ccc(C#N)cc1.O=S(=O)([N-]S(=O)(=O)C(F)(F)F)C(F)(F)F"
measured_quantity = "activity coefficient"
measurement = 2.28


Provide reported activity coefficient for each item, in the same order as listed.
1. C1CCCCCC1 [cycloheptane] + CCCC[n+]1ccc(C#N)cc1.O=S(=O)([N-]S(=O)(=O)C(F)(F)F)C(F)(F)F
2. CCCC(C)=O [pentan-2-one] + CCCC[n+]1ccc(C#N)cc1.O=S(=O)([N-]S(=O)(=O)C(F)(F)F)C(F)(F)F

[22.3, 0.697]

====

Assignment: determine reported activity coefficient for the given compounds.
assay: activity coefficient (dimensionless); of the first substance listed, at infinite dilution; xn = mol fraction of the nth substance listed; conditions: 358.15 K; 100 kPa; Liquid; Chromatography; x1 = 0
Give bare numbers.

// worked examples, activity coefficient included
[[record]]
compound = "C#CCCCCCC [1-octyne] + CCCC[n+]1ccc(C#N)cc1.O=S(=O)([N-]S(=O)(=O)C(F)(F)F)C(F)(F)F"
measured_quantity = "activity coefficient"
measurement = 10.4

[[record]]
compound = "CC#N [acetonitrile] + CCCC[n+]1ccc(C#N)cc1.O=S(=O)([N-]S(=O)(=O)C(F)(F)F)C(F)(F)F"
measured_quantity = "activity coefficient"
measurement = 0.516


Provide reported activity coefficient for each item, in the same order as listed.
1. Cc1cccc(C)c1 [1,3-dimethylbenzene] + CCCC[n+]1ccc(C#N)cc1.O=S(=O)([N-]S(=O)(=O)C(F)(F)F)C(F)(F)F
2. CCCC=O [butanal] + CCCC[n+]1ccc(C#N)cc1.O=S(=O)([N-]S(=O)(=O)C(F)(F)F)C(F)(F)F

1: 2.71; 2: 0.884

====

Assignment: determine reported activity coefficient for the given compounds.
experiment: activity coefficient (dimensionless); of the first substance listed, at infinite dilution; xn = mol fraction of the nth substance listed; settings: 328.15 K; 100 kPa; Liquid; Chromatography; x1 = 0
Answers are plain numbers.

[[record]]
compound = "CCCCCCC [heptane] + CCCC[n+]1ccc(C#N)cc1.O=S(=O)([N-]S(=O)(=O)C(F)(F)F)C(F)(F)F"
measured_quantity = "activity coefficient"
measurement = 39.8


Provide reported activity coefficient for each item, in the same order as listed.
1. CCCCC [pentane] + CCCC[n+]1ccc(C#N)cc1.O=S(=O)([N-]S(=O)(=O)C(F)(F)F)C(F)(F)F
2. CCCOCCC [dipropyl ether] + CCCC[n+]1ccc(C#N)cc1.O=S(=O)([N-]S(=O)(=O)C(F)(F)F)C(F)(F)F
3. C=CCCCC [hex-1-ene] + CCCC[n+]1ccc(C#N)cc1.O=S(=O)([N-]S(=O)(=O)C(F)(F)F)C(F)(F)F
4. COC(C)=O [methyl ethanoate] + CCCC[n+]1ccc(C#N)cc1.O=S(=O)([N-]S(=O)(=O)C(F)(F)F)C(F)(F)F
5. CCOCC [diethyl ether] + CCCC[n+]1ccc(C#N)cc1.O=S(=O)([N-]S(=O)(=O)C(F)(F)F)C(F)(F)F
6. CCC(=O)OC [methyl propanoate] + CCCC[n+]1ccc(C#N)cc1.O=S(=O)([N-]S(=O)(=O)C(F)(F)F)C(F)(F)F

22
8.83
13.5
0.685
3.31
0.905

Provide reported activity coefficient for each item, in the same order as listed.
1. C=CCCCCCCCC [1-decene] + CCCC[n+]1ccc(C#N)cc1.O=S(=O)([N-]S(=O)(=O)C(F)(F)F)C(F)(F)F
2. C1CCCCCC1 [cycloheptane] + CCCC[n+]1ccc(C#N)cc1.O=S(=O)([N-]S(=O)(=O)C(F)(F)F)C(F)(F)F
3. Cc1cccc(C)c1 [1,3-dimethylbenzene] + CCCC[n+]1ccc(C#N)cc1.O=S(=O)([N-]S(=O)(=O)C(F)(F)F)C(F)(F)F

55.2
19.1
2.37

Provide reported activity coefficient for each item, in the same order as listed.
1. CCOC(C)(C)C [2-ethoxy-2-methylpropane] + CCCC[n+]1ccc(C#N)cc1.O=S(=O)([N-]S(=O)(=O)C(F)(F)F)C(F)(F)F
2. C=Cc1ccccc1 [styrene] + CCCC[n+]1ccc(C#N)cc1.O=S(=O)([N-]S(=O)(=O)C(F)(F)F)C(F)(F)F

[8.84, 1.44]
